Assay: In vitro antagonist activity against collagen induced gel-filtered platelet (GFP) aggregation at 3 ug/mL
readoutType: IC50 (µM)
Give the value, in units of µM, as a plain number.

compound: COc1ccc(C[C@H](NC(=O)Nc2ccc3c(CN4CCCC4)cn(Cc4c(Cl)cccc4Cl)c3c2)C(=O)N[C@@H](CCCNC(=N)N)C(=O)NCc2ccccc2)cc1 [RWJ-54003]
readoutType: IC50
u: µM
reportedValue: 46.3

Query: Field request: IC50 | item: `COc1ccc(C[C@H](NC(=O)Nc2ccc3c(CNC4CCCC4)cn(Cc4ccc(F)cc4)c3c2)C(=O)N[C@@H](CCCN=C(N)N)C(=O)NCc2ccccc2)cc1`
Reply: 41.4

Query: Another compound to check: `N=C(N)NCCC[C@H](NC(=O)[C@H](Cc1ccccc1)NC(=O)Nc1ccc2c(CN3CCCC3)cn(Cc3ccc(F)cc3)c2c1)C(=O)NCc1ccccc1`
Reply: 12.7

Query: Another compound to check: `COc1ccc(C[C@H](NC(=O)Nc2ccc3c(CN4CCCC4)cn(Cc4ccc(OC(F)(F)F)cc4)c3c2)C(=O)N[C@@H](CCCN=C(N)N)C(=O)NCc2ccccc2)cc1`
Reply: 24.2

* * *

Assay: in vitro antagonist activity against U-46,619 induced gel-filtered Platelet (GFP) aggregation at 0.3 uM
Type: functional
readoutType: pIC50
Bear in mind: pIC50 is minus log10 of a mol/L concentration; give just that figure.

Query: Field request: pIC50 | item: `N=C(N)NCCC[C@H](NC(=O)[C@H](Cc1ccc(F)c(F)c1)NC(=O)Nc1ccc2c(CN3CCCC3)cn(Cc3c(Cl)cccc3Cl)c2c1)C(=O)NCc1ccncc1`
Reply: 4.88

* * *

Test: In vitro antagonist activity against SFLLRN-NH2 induced gel-filtered platelet (GFP) aggregation at 2 uM
Format: functional
readoutType: pIC50
Bear in mind: pIC50 is minus log10 of a mol/L concentration; give just that figure.

smilesRecord: COc1ccc(C[C@H](NC(=O)Nc2ccc3c(CNC4CCCC4)cn(Cc4ccc(F)cc4)c3c2)C(=O)N[C@@H](CCCN=C(N)N)C(=O)NCc2ccccc2)cc1
readoutType: pIC50
reportedValue: 5.66

smilesRecord: N=C(N)NCCC[C@H](NC(=O)[C@H](Cc1ccccc1)NC(=O)Nc1ccc2c(CN3CCCC3)cn(Cc3ccc(F)cc3)c2c1)C(=O)NCc1ccccc1
readoutType: pIC50
reportedValue: 6.52

smilesRecord: N=C(N)NCCC[C@H](NC(=O)[C@H](Cc1ccc(F)c(F)c1)NC(=O)Nc1ccc2c(CN3CCCC3)cn(Cc3c(Cl)cccc3Cl)c2c1)C(=O)NCc1ccncc1
readoutType: pIC50
reportedValue: 6.44

smilesRecord: COc1ccc(C[C@H](NC(=O)Nc2ccc3c(CN4CCCC4)cn(Cc4ccc(OC(F)(F)F)cc4)c3c2)C(=O)N[C@@H](CCCN=C(N)N)C(=O)NCc2ccccc2)cc1
readoutType: pIC50
reportedValue: 5.49

smilesRecord: NCC[C@H](NC(=O)[C@H](Cc1ccc(F)c(F)c1)NC(=O)Nc1ccc2c(CN3CCCC3)nn(Cc3c(Cl)cccc3Cl)c2c1)C(=O)NCc1ccccc1
readoutType: pIC50
reportedValue: 6.96

smilesRecord: N=C(N)NCCC[C@H](NC(=O)[C@H](Cc1ccc(F)c(F)c1)NC(=O)Nc1ccc2c(CN3CCCC3)cn(Cc3c(Cl)cccc3Cl)c2c1)C(=O)NCc1ccccc1
readoutType: pIC50
reportedValue: 6.74

Query: Field request: pIC50 | item: `COc1ccc(C[C@H](NC(=O)Nc2ccc3c(CN4CCCC4)cn(Cc4ccc(F)cc4)c3c2)C(=O)N[C@@H](CCCN=C(N)N)C(=O)NCc2ccccc2)cc1`
Reply: 6.57

Query: Another molecule to check: `COc1ccc(C[C@H](NC(=O)Nc2ccc3c(CN4CCCC4)cn(Cc4c(Cl)cccc4Cl)c3c2)C(=O)N[C@@H](CCCNC(=N)N)C(=O)NCc2ccccc2)cc1`
Reply: 6.52

* * *

Target: Proteinase-activated receptor 1 (Homo sapiens)
Sequence (P25116 whole entry): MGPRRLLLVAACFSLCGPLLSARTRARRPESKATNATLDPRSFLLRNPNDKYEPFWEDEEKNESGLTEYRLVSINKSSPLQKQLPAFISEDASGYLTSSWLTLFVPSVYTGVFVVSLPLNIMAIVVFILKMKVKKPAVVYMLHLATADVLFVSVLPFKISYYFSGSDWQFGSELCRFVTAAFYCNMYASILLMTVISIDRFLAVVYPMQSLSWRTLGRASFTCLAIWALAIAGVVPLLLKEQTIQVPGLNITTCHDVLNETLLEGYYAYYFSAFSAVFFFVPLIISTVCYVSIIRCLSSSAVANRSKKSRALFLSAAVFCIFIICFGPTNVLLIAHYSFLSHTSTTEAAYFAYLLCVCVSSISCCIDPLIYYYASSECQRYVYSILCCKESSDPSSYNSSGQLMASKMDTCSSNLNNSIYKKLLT
Assay: Binding affinity against Protease-activated receptor (PAR-1) using [3H]-s-(p-F-Phe)-homoarginine-L-homoarginine-KY-NH2, 10 nM (Kd= 15 nM)
readoutType: IC50 (nM)
Give the value, in units of nM, as a plain number.

Would you please look over these solved cases?
smilesRecord: COc1ccc(C[C@H](NC(=O)Nc2ccc3c(CN4CCCC4)cn(Cc4c(Cl)cccc4Cl)c3c2)C(=O)N[C@@H](CCCNC(=N)N)C(=O)NCc2ccccc2)cc1
reportedValue: 1300
--
smilesRecord: N=C(N)NCCC[C@H](NC(=O)[C@H](Cc1ccc(F)c(F)c1)NC(=O)Nc1ccc2c(CN3CCCC3)cn(Cc3c(Cl)cccc3Cl)c2c1)C(=O)NCc1ccccc1
reportedValue: 820

For the next question, use this compound.
Query: Field request: IC50 | item: `N=C(N)NCCC[C@H](NC(=O)[C@H](Cc1ccccc1)NC(=O)Nc1ccc2c(CN3CCCC3)cn(Cc3ccc(F)cc3)c2c1)C(=O)NCc1ccccc1`
Reply: 700
